# Assay info: Fluorescence emission spectra and fluorescence quantum yield (FQY) of dyes
# Format: physicochemical
# Experimental conditions: PBS buffer
Reported property: FQY

>  <Compound>
CCCCN(CCCC)c1ccc2cc(/C=C(\F)c3cc[n+](CCC[N+](CC)(CC)CC)cc3F)ccc2c1 [PY4160]

>  <Observed measurement>
— (FQY < 0.001)

$$$$
>  <Compound>
CCCCN(CCCC)c1ccc2cc(/C=C/c3cc[n+](CCC[N+](CC)(CC)CC)cc3F)ccc2c1F [PY3179]

>  <Observed measurement>
— (FQY < 0.001)

$$$$
>  <Compound>
CCCCN(CCCC)c1ccc2cc(/C=C(\F)c3cc[n+](CCC[N+](CC)(CC)CC)cc3)ccc2c1 [PY3006]

>  <Observed measurement>
— (FQY < 0.001)

$$$$
>  <Compound>
CCCCN(CCCC)c1ccc2cc(/C=C/c3c(F)c[n+](CCC[N+](CC)(CC)CC)c4ccccc34)ccc2c1 [PY4221]

>  <Observed measurement>
— (FQY < 0.001)

$$$$
>  <Compound>
CCCCN(CCCC)c1ccc2cc(/C=C(\F)c3cc[n+](CCC[N+](CC)(CC)CC)cc3)ccc2c1F [PY4038]

>  <Observed measurement>
— (FQY < 0.001)

$$$$
>  <Compound>
CCCCN(CCCC)c1ccc2cc(/C=C(\F)c3cc[n+](CCC[N+](CC)(CC)CC)cc3)ccc2c1C(F)(F)F [PY4125]

>  <Observed measurement>
0.004

$$$$
>  <Compound>
CCCCN(CCCC)c1ccc2cc(/C=C/c3cc[n+](CCC[N+](CC)(CC)CC)cc3F)ccc2c1 [PY3128]

>  <Observed measurement>
— (FQY < 0.001)

$$$$
>  <Compound>
CCCCN(CCCC)c1ccc2cc(/C=C/c3cc[n+](CCC[N+](CC)(CC)CC)cc3)ccc2c1C(F)(F)F [PY4093]

>  <Observed measurement>
0.005

$$$$

###

The following compounds are shown together with reported λmax em values.
# Assay info: Fluorescence emission spectra and fluorescence quantum yield (FQY) of dyes
# Type: physicochemical
# Experimental conditions: Lipid vesicles
Reported property: λmax em (nm)

>  <Compound>
CCCCN(CCCC)c1ccc2cc(/C=C/c3cc[n+](CCC[N+](CC)(CC)CC)cc3)ccc2c1F

>  <Unit label>
nm

>  <Observed measurement>
610

$$$$
>  <Compound>
CCCCN(CCCC)c1ccc2cc(/C=C/c3c(F)c[n+](CCC[N+](CC)(CC)CC)c4ccccc34)ccc2c1 [PY4221]

>  <Unit label>
nm

>  <Observed measurement>
743

$$$$
>  <Compound>
CCCCN(CCCC)c1ccc2cc(/C=C/c3cc[n+](CCC[N+](CC)(CC)CC)cc3)ccc2c1C(F)(F)F

>  <Unit label>
nm

>  <Observed measurement>
597

$$$$
>  <Compound>
CCCCN(CCCC)c1ccc2cc(/C=C(\F)c3cc[n+](CCC[N+](CC)(CC)CC)cc3F)ccc2c1F

>  <Unit label>
nm

>  <Observed measurement>
651

$$$$
>  <Compound>
CCCCN(CCCC)c1ccc2cc(/C=C(\F)c3cc[n+](CCC[N+](CC)(CC)CC)cc3)ccc2c1

>  <Unit label>
nm

>  <Observed measurement>
636

$$$$
>  <Compound>
CCCCN(CCCC)c1ccc2cc(/C=C/c3cc[n+](CCC[N+](CC)(CC)CC)cc3F)ccc2c1F

>  <Unit label>
nm

>  <Observed measurement>
632

$$$$
>  <Compound>
CCCCN(CCCC)c1ccc2cc(/C=C(\F)c3cc[n+](CCC[N+](CC)(CC)CC)cc3)ccc2c1C(F)(F)F

>  <Unit label>
nm

>  <Observed measurement>
590

$$$$

###

# FQY per record follows
# Assay info: Fluorescence emission spectra and fluorescence quantum yield (FQY) of dyes
# Type: physicochemical
# Experimental conditions: Lipid vesicles

>  <Compound>
CCCCN(CCCC)c1ccc2cc(/C=C/c3c(F)c[n+](CCC[N+](CC)(CC)CC)c4ccccc34)ccc2c1 [PY3304]

>  <FQY>
0.03

$$$$
>  <Compound>
CCCCN(CCCC)c1ccc2cc(/C=C(\F)c3cc[n+](CCC[N+](CC)(CC)CC)cc3F)ccc2c1

>  <FQY>
0.21

$$$$
>  <Compound>
CCCCN(CCCC)c1ccc2cc(/C=C(\F)c3cc[n+](CCC[N+](CC)(CC)CC)cc3)ccc2c1

>  <FQY>
0.16

$$$$
>  <Compound>
CCCCN(CCCC)c1ccc2cc(/C=C/c3c(F)c[n+](CCC[N+](CC)(CC)CC)cc3F)ccc2c1

>  <FQY>
0.18

$$$$
>  <Compound>
CCCCN(CCCC)c1ccc2cc(/C=C/c3cc[n+](CCC[N+](CC)(CC)CC)cc3)ccc2c1C(F)(F)F

>  <FQY>
0.35

$$$$
>  <Compound>
CCCCN(CCCC)c1ccc2cc(/C=C(\F)c3cc[n+](CCC[N+](CC)(CC)CC)cc3)ccc2c1F

>  <FQY>
0.26

$$$$
>  <Compound>
CCCCN(CCCC)c1ccc2cc(/C=C/c3cc[n+](CCC[N+](CC)(CC)CC)cc3F)ccc2c1

>  <FQY>
0.26

$$$$

###

# Assay info: Fluorescence emission spectra and fluorescence quantum yield (FQY) of dyes
# Assay type: physicochemical
# Experimental conditions: Ethanol
# Excerpt: Similar methods were used to prepare additional dyes.
Answer Not satisfied if λmax em is under 700 nm, and Satisfied if it is 700 nm or more.

>  <Smiles code>
CCCCN(CCCC)c1ccc2cc(/C=C(\F)c3cc[n+](CCC[N+](CC)(CC)CC)cc3F)ccc2c1F

>  <Cat>
Satisfied

$$$$
>  <Smiles code>
CCCCN(CCCC)c1ccc2cc(/C=C(\F)c3cc[n+](CCC[N+](CC)(CC)CC)cc3)ccc2c1F

>  <Cat>
Satisfied

$$$$
>  <Smiles code>
CCCCN(CCCC)c1ccc2cc(/C=C/c3c(F)c[n+](CCC[N+](CC)(CC)CC)c4ccccc34)ccc2c1

>  <Cat>
Satisfied

$$$$
>  <Smiles code>
CCCCN(CCCC)c1ccc2cc(/C=C/c3c(F)c[n+](CCC[N+](CC)(CC)CC)cc3F)ccc2c1

>  <Cat>
Not satisfied

$$$$

###

# Assay info: Fluorescence emission spectra and fluorescence quantum yield (FQY) of dyes
# Format: physicochemical
# Experimental conditions: PBS buffer

>  <Molecule>
CCCCN(CCCC)c1ccc2cc(/C=C/c3cc[n+](CCC[N+](CC)(CC)CC)cc3)ccc2c1F

>  <FQY>
0.002

$$$$
>  <Molecule>
CCCCN(CCCC)c1ccc2cc(/C=C(\F)c3cc[n+](CCC[N+](CC)(CC)CC)cc3F)ccc2c1F

>  <FQY>
— (FQY < 0.001)

$$$$
>  <Molecule>
CCCCN(CCCC)c1ccc2cc(/C=C/c3c(F)c[n+](CCC[N+](CC)(CC)CC)cc3F)ccc2c1

>  <FQY>
— (FQY < 0.001)

$$$$
>  <Molecule>
CCCCN(CCCC)c1ccc2cc(/C=C/c3c(F)c[n+](CCC[N+](CC)(CC)CC)c4ccccc34)ccc2c1 [PY3304]

>  <FQY>
— (FQY < 0.001)

$$$$

###

# Assay info: One-photon absorption spectra of dyes (λmax abs, logε)
# Assay type: physicochemical
# Experimental conditions: Lipid vesicles

>  <Smiles code>
CCCCN(CCCC)c1ccc2cc(/C=C(\F)c3cc[n+](CCC[N+](CC)(CC)CC)cc3F)ccc2c1F

>  <Unit label>
nm

>  <λmax abs>
470

$$$$
>  <Smiles code>
CCCCN(CCCC)c1ccc2cc(/C=C/c3cc[n+](CCC[N+](CC)(CC)CC)cc3F)ccc2c1F

>  <Unit label>
nm

>  <λmax abs>
465

$$$$
>  <Smiles code>
CCCCN(CCCC)c1ccc2cc(/C=C(\F)c3cc[n+](CCC[N+](CC)(CC)CC)cc3)ccc2c1F

>  <Unit label>
nm

>  <λmax abs>
464

$$$$
>  <Smiles code>
CCCCN(CCCC)c1ccc2cc(/C=C(\F)c3cc[n+](CCC[N+](CC)(CC)CC)cc3F)ccc2c1

>  <Unit label>
nm

>  <λmax abs>
500

$$$$
>  <Smiles code>
CCCCN(CCCC)c1ccc2cc(/C=C/c3cc[n+](CCC[N+](CC)(CC)CC)cc3)ccc2c1F

>  <Unit label>
nm

>  <λmax abs>
444

$$$$

###

# Assay info: Fluorescence emission spectra and fluorescence quantum yield (FQY) of dyes
# Format: physicochemical
# Experimental conditions: Ethanol
# From the text: Similar methods were used to prepare additional dyes.
Reported property: FQY

>  <Compound>
CCCCN(CCCC)c1ccc2cc(/C=C/c3cc[n+](CCC[N+](CC)(CC)CC)cc3F)ccc2c1F [PY3179]

>  <Observed measurement>
0.003

$$$$
>  <Compound>
CCCCN(CCCC)c1ccc2cc(/C=C(\F)c3cc[n+](CCC[N+](CC)(CC)CC)cc3)ccc2c1C(F)(F)F [PY4125]

>  <Observed measurement>
0.006

$$$$
>  <Compound>
CCCCN(CCCC)c1ccc2cc(/C=C/c3cc[n+](CCC[N+](CC)(CC)CC)cc3)ccc2c1C(F)(F)F [PY4093]

>  <Observed measurement>
0.046

$$$$
>  <Compound>
CCCCN(CCCC)c1ccc2cc(/C=C/c3c(F)c[n+](CCC[N+](CC)(CC)CC)c4ccccc34)ccc2c1 [PY3304]

>  <Observed measurement>
0.001

$$$$
>  <Compound>
CCCCN(CCCC)c1ccc2cc(/C=C/c3cc[n+](CCC[N+](CC)(CC)CC)cc3F)ccc2c1 [PY3128]

>  <Observed measurement>
0.002

$$$$
>  <Compound>
CCCCN(CCCC)c1ccc2cc(/C=C(\F)c3cc[n+](CCC[N+](CC)(CC)CC)cc3F)ccc2c1 [PY4160]

>  <Observed measurement>
0.003

$$$$
>  <Compound>
CCCCN(CCCC)c1ccc2cc(/C=C(\F)c3cc[n+](CCC[N+](CC)(CC)CC)cc3)ccc2c1F [PY4038]

>  <Observed measurement>
0.001

$$$$
>  <Compound>
CCCCN(CCCC)c1ccc2cc(/C=C/c3cc[n+](CCC[N+](CC)(CC)CC)cc3)ccc2c1F [PY3174]

>  <Observed measurement>
0.007

$$$$
>  <Compound>
CCCCN(CCCC)c1ccc2cc(/C=C/c3c(F)c[n+](CCC[N+](CC)(CC)CC)cc3F)ccc2c1 [PY3184]

>  <Observed measurement>
0.004

$$$$
>  <Compound>
CCCCN(CCCC)c1ccc2cc(/C=C(\F)c3cc[n+](CCC[N+](CC)(CC)CC)cc3F)ccc2c1F [PY4158]

>  <Observed measurement>
0.003

$$$$
>  <Compound>
CCCCN(CCCC)c1ccc2cc(/C=C(\F)c3cc[n+](CCC[N+](CC)(CC)CC)cc3)ccc2c1 [PY3006]

>  <Observed measurement>
0.001

$$$$
